- SYSTEM_UNDER_TEST: T1, P8bH1
- T1 chain: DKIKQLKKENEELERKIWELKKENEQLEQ
- PROCEDURE_SUMMARY: two-hybrid library CCNG1;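 further: natural log of median RNA to DNA barcode read ratio; higher means stronger binding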
OUTCOME_MEASURE: interaction score

(P) DKNKQLKKENEELERKIWELKKKIEQLKQ [P10bH1]
(Q) DKNKQLKKKIEELKRKIWELKKENEQLEQ [P12bH1]
(R) DEIKQLEKKNEELKREIWELEKKNEQLKQ [P7bH1]
(S) DEIKQLEKEIEELERKNWELKKKNEQLKQ [P3bH1]
(T) DENKQLEKKIEELKRKNWELKKEIEQLEQ [P5bH1]
Place the item with the largest interaction score first, then continue in falling order, using the list above. Give the labels in the order specified.
R, T, S, P, Q
(R: 1.89, T: 0.944, S: 0.173, P: -0.375, Q: -0.578)
